# target_desc: T1, recombinant biotinylated CD71 extracellular domain (Sino Biologics) with an N-terminal 6His tag (human, UniProt P02786 89-760, biotinylated (sites not given))
# T1 construct: extracellular domain; also called hCD71; huCD71
# method_notes: screening ELISA, ratio
Reported hCD71:HSA values follow for various binders
quantity_kind: hCD71:HSA

binder: SEQ ID NO 286 (designed binder, FN3 domain) MLPAPKNLVVSRVTEDSARLSWTAPDAAFDSFNIYYPEFPVRGEAIVLTVPGSERSYDLTGLKPGTEYVVSIWGVKGGTQSWPLSAIFTT
observed_result: 118
--
binder: SEQ ID NO 241 (designed binder, FN3 domain) MLPAPKNLVVSRVTEDSARLSWTAPDAAFDSFNIYYYEWFVSGEAIVLTVPGSERSYDLTGLKPGTEYFVDIDGVKGGYRSRPLSAIFTT
observed_result: 1230

The values you see were collected from patent US20210145976A1.
